- ASSAY TARGET: Dipeptidyl peptidase 9 (DPP9), recombinant wild-type (human) (UniProt Q86TI2)
- Sequence (Q86TI2 other isoform, or with tags, fused parts or gaps limits assumed, form in doubt): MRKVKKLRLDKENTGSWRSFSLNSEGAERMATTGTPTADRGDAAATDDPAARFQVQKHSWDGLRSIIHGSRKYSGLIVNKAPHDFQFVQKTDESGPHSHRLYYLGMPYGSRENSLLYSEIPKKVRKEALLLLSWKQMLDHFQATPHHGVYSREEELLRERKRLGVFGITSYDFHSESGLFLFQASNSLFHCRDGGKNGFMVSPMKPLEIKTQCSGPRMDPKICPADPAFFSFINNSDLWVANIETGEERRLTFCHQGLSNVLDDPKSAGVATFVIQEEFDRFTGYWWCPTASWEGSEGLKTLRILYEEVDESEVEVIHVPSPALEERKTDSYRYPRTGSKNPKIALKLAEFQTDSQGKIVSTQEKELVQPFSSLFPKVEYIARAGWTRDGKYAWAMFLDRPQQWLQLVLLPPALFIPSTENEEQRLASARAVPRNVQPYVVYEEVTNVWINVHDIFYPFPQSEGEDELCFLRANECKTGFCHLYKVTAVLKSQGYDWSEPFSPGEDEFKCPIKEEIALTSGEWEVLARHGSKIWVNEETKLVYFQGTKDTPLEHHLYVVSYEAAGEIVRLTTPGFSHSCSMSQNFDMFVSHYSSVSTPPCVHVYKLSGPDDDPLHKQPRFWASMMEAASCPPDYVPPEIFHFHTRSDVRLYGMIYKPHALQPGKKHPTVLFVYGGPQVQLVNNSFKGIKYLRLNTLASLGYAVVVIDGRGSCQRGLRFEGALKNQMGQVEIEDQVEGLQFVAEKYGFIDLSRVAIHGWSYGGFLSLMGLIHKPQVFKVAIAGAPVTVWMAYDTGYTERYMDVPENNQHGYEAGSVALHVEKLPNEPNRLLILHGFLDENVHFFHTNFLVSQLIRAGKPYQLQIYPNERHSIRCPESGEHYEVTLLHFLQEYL
- TEST METHOD NOTES: enzyme kinetics, GP-AMC hydrolysis by recombinant DPP9
ENDPOINT LABEL: Ki

Value of measured Ki for the entry SLRFLYEG (SEQ ID NO: 38) (peptide) : 0.4 µM

====

- ASSAY TARGET: Dipeptidyl peptidase 8 (DPP8), recombinant (human)
- TEST METHOD NOTES: enzyme kinetics, GP-AMC hydrolysis by recombinant DPP8
ENDPOINT LABEL: Ki (µM)
Kindly provide the numeric value in µM only, without the unit symbol.

response.value for SLRFLYEG (SEQ ID NO: 38) (peptide) (field: Ki) = 3.6

====

- ASSAY TARGET: Dipeptidyl peptidase 9 (DPP9), recombinant wild-type (human) (UniProt Q86TI2)
- TEST METHOD NOTES: enzyme kinetics, GP-AMC hydrolysis by 25 nM recombinant DPP9 with 0, 5 or 20 µM peptide
ENDPOINT LABEL: Ki (nM)
Your answer is read as nM, so omit the unit and give the number.

Reported Ki for SLRFLFEG (SEQ ID NO: 37) (peptide) was 2000
